target: GPR139 (Homo sapiens, UniProt Q6DWJ6); assay: GPR139 Agonist titration / agonist counterscreen assay (calcium detection, HEK-GPR139 cells); format: cell-based; parameters: expressed in transfected cells; host or cells: HEK Aequorin cells, Maxcyte transient transfection; settings: GPR139 Agonist Activity; ligand efficiency
Sequence (Q6DWJ6 whole entry): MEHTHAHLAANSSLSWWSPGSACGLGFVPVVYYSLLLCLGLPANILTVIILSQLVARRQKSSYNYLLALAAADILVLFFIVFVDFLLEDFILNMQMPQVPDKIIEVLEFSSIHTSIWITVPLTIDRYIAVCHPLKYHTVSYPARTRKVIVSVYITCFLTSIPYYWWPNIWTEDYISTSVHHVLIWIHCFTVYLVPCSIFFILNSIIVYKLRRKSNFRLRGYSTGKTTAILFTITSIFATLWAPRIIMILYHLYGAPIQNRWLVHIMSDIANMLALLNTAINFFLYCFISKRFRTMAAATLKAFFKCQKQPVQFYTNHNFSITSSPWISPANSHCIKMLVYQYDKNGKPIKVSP
Measured Attribute: Efficiency Ligand

compound="CC(C(=O)NCCC1=CCCCC1)n1c(=O)c2cccn2c2ccccc21 (centres unmarked)" measured=0.36
compound="COc1cc(OC)cc(C(=O)NNC(=O)C(C)Oc2ccc(Cl)cc2Cl)c1 (centres unmarked)" measured=0.40
compound=O=c1nc(SCc2ccccc2F)c2c([nH]1)CCC2 measured=0.50
compound="O=C(c1ccccc1)C1CCCCC1S(=O)(=O)O (centres unmarked)" measured=0.54
compound="CC(Oc1ccc(O)cc1Cl)C(=O)NNC(=O)c1cccc(F)c1 (centres unmarked)" measured=0.53
compound="CC(C(=O)NCCc1ccc(Cl)cc1)n1ncn2cccc2c1=O (centres unmarked)" measured=0.52
compound=O=C(Cn1ncc2c(Cl)cccc21)NCCc1ccc(Cl)cc1 measured=0.40
compound=O=C(CN1CCN(Cc2ccccc2Cl)C1=O)NCc1ccccc1Cl measured=0.40
compound=COc1cc(C(C)=O)ccc1OCC(=O)OCC(=O)NCCCc1ccccc1 measured=0.35
compound=COc1ccc(CCNC(=O)CC(=O)NCCc2ccc(OC)cc2)cc1 measured=0.36
compound=O=C(Cc1cccc2ccccc12)NCC(=O)NNC(=O)c1ccco1 measured=0.39
compound=CCCc1ccccc1C1=CCC(NC(=O)Cn2ncc3c2-c2ccccc2CC3)=C1 measured=0.32
compound=O=C(CSc1ccc(Cl)cc1)Nc1nnc(-c2ccco2)o1 measured=0.45
compound=COc1ccc(CCC(=O)Nc2ccc(/C(N)=N/O)cc2)cc1 measured=0.41
compound=COc1cc(-c2nnc(COc3ccc(Cl)cc3C)o2)cc(OC)c1OC measured=0.40
compound=O=C(Cn1nnc(-c2ccccc2)n1)NNC(=O)Cn1c(C(F)(F)F)nc2ccccc21 measured=0.35
compound="COc1ccc(C2(C)NC(=O)N(CC(=O)NCc3ccc(F)cc3)C2=O)cc1 (centres unmarked)" measured=0.37
compound="CC(NC(=O)c1ccc2c(c1)N(Cc1ccccc1)C(=O)C[S+]2[O-])c1ccccc1 (centres unmarked)" measured=0.32
compound="CC(C)C(C)(C#N)NC(=O)CSc1nnc(Cc2cccc3ccccc23)n1N (centres unmarked)" measured=0.33
compound=Cc1ccc(NC(=O)NNC(=O)COc2ccc(Cl)cc2)c(C)c1 measured=0.41
compound=O=C(CSCc1ccc(Cl)cc1Cl)NNC(=O)c1ccccc1 measured=0.56
compound=C=C(Nc1ccc(-c2cn[nH]c2)cc1)N(C)Cc1cccc(C(=O)CC)c1 measured=0.36
compound=CCc1cc(C2=C/C(=C/c3c(OC)ccc4ccccc34)C(=O)O2)cc(OC)c1OC measured=0.33
compound=Cc1ccc(Br)cc1S(=O)(=O)NCCC(=O)NCCc1sccc1C measured=0.38
compound=COc1ccccc1OCC(=O)NCCc1ccc2c(c1)CCCN2C measured=0.44
compound="O=C(CN1C(=O)NC2(CCc3ccccc3C2)C1=O)N1CCc2ccccc2C1 (centres unmarked)" measured=0.32
compound=O=C(CCC1CCCC1)NNC(=O)CSc1ccc(Cl)cc1 measured=0.46
compound=Cc1ccc(SCC(=O)Nc2nnc(-c3ccc(Cl)cc3)o2)cc1 measured=0.39
compound="C=CCC(O)(CC=C)C(C)NC(=O)CCC1(Cc2ccc3ccccc3c2)CCC(=O)N1 (centres unmarked)" measured=0.30
compound=Cc1ccc(CCNC(=O)Cn2nc(-c3ccccc3)ccc2=O)cc1 measured=0.37
compound="CC(NC(=O)Cn1cc(NC(=O)c2ccccc2F)cn1)c1ccccc1Cl (centres unmarked)" measured=0.39
compound="CC1CC(C)CN(C(=O)C2C3C=CC4(CN(Cc5ccccc5Cl)C(=O)C24)O3)C1 (centres unmarked)" measured=0.35
compound=O=C(COc1ccc2ccccc2c1)NNC(=O)Cc1cccc2ccccc12 measured=0.33
compound="O=C(Nc1ccc(-c2cn[nH]c2)cc1OCCN1CCCC1)C1COc2ccc(F)cc2C1.O=C(O)C(F)(F)F.O=C(O)C(F)(F)F (centres unmarked)" measured=0.29
compound=Cc1ccc(SCC(=O)NNC(=O)c2cccs2)cc1 measured=0.48
